- MEASUREMENT NOTES: HLM stability test with LC-MS metabolite screening
- Assay type: in vitro ADME, human
- CONDITION: both sexes, human, pooled human liver microsomes, pH 7.4; pooled HLM, this study; read-out: in vitro half-life (converted)
REPORTED ENDPOINT: half-life at 100 µM (min)
Return type: number; implicit unit min.

Exercise: Supply reported half-life at 100 µM belonging to this compound: CSc1nc(-c2ccnc(NC(C)c3ccccc3)c2)c(-c2ccc(F)cc2)[nH]1 (stereo not shown) [ML3403, reference compound]
Key: 51.6

---

- MEASUREMENT NOTES: HLM stability test with LC-MS metabolite screening
- Format: in vitro ADME, human
- CONDITION: HLM, 120 min
REPORTED ENDPOINT: Degradation: compound remaining, AVERAGE (%)
Return type: number; implicit unit %.

Example entries begin here.
Exercise: Supply reported Degradation: compound remaining, AVERAGE belonging to this compound: CC(C)C(C)Nc1cc(-c2nc(SCCO)[nH]c2-c2ccc(F)cc2)ccn1 (stereo not shown) [LN950, reference compound]
Key: 37.23

Exercise: Supply reported Degradation: compound remaining, AVERAGE belonging to this compound: CCc1nc(-c2ccc(F)cc2)c(-c2ccnc(NC(C)c3ccccc3)c2)[nH]1 (stereo not shown)
Key: 83.65

Exercise: Supply reported Degradation: compound remaining, AVERAGE belonging to this compound: CSc1nc(-c2ccnc(NC(C)c3ccccc3)c2)c(-c2ccc(F)cc2)[nH]1 (stereo not shown) [ML3403, reference compound]
Key: 31.72

Turning now to a further compound:
Exercise: Supply reported Degradation: compound remaining, AVERAGE belonging to this compound: CC(C)C(C)Nc1cc(-c2[nH]c(CCCO)nc2-c2ccc(F)cc2)ccn1 (stereo not shown)
Key: 91.57

---

- MEASUREMENT NOTES: HLM stability test with LC-MS metabolite screening
- Type: in vitro ADME, human
- CONDITION: HLM, 10 min
REPORTED ENDPOINT: Degradation: compound remaining, AVERAGE
Field note: include the unit after the figure.

Exercise: Supply reported Degradation: compound remaining, AVERAGE belonging to this compound: CC(C)C(C)Nc1cc(-c2nc(SCCO)[nH]c2-c2ccc(F)cc2)ccn1 (stereo not shown) [LN950, reference compound]
Key: 86.86%

Exercise: Supply reported Degradation: compound remaining, AVERAGE belonging to this compound: CC(C)C(C)Nc1cc(-c2[nH]c(CCCO)nc2-c2ccc(F)cc2)ccn1 (stereo not shown)
Key: 97.15%

Exercise: Supply reported Degradation: compound remaining, AVERAGE belonging to this compound: CCc1nc(-c2ccc(F)cc2)c(-c2ccnc(NC(C)c3ccccc3)c2)[nH]1 (stereo not shown)
Key: 92.72%

Turning now to a further compound:
Exercise: Supply reported Degradation: compound remaining, AVERAGE belonging to this compound: CSc1nc(-c2ccnc(NC(C)c3ccccc3)c2)c(-c2ccc(F)cc2)[nH]1 (stereo not shown) [ML3403, reference compound]
Key: 80.59%

---

- MEASUREMENT NOTES: HLM stability test with LC-MS metabolite screening
- Format: in vitro ADME, human
- CONDITION: HLM, 20 min
REPORTED ENDPOINT: Degradation: compound remaining, AVERAGE (%)
Return type: number; implicit unit %.

Example entries begin here.
Exercise: Supply reported Degradation: compound remaining, AVERAGE belonging to this compound: CCc1nc(-c2ccc(F)cc2)c(-c2ccnc(NC(C)c3ccccc3)c2)[nH]1 (stereo not shown) [compound 1]
Key: 89.75

Exercise: Supply reported Degradation: compound remaining, AVERAGE belonging to this compound: CSc1nc(-c2ccnc(NC(C)c3ccccc3)c2)c(-c2ccc(F)cc2)[nH]1 (stereo not shown) [ML3403, reference compound]
Key: 68.97

Exercise: Supply reported Degradation: compound remaining, AVERAGE belonging to this compound: CC(C)C(C)Nc1cc(-c2[nH]c(CCCO)nc2-c2ccc(F)cc2)ccn1 (stereo not shown) [compound 2]
Key: 93.57

Further cases:
Exercise: Supply reported Degradation: compound remaining, AVERAGE belonging to this compound: CC(C)C(C)Nc1cc(-c2nc(SCCO)[nH]c2-c2ccc(F)cc2)ccn1 (stereo not shown) [LN950, reference compound]
Key: 77.42

---

- STUDY SYSTEM: CYP2C9 (Homo sapiens, UniProt P11712)
- Construct: purchased Eurofins Panlabs Inc. (contract assay)
- Sequence (P11712 whole entry): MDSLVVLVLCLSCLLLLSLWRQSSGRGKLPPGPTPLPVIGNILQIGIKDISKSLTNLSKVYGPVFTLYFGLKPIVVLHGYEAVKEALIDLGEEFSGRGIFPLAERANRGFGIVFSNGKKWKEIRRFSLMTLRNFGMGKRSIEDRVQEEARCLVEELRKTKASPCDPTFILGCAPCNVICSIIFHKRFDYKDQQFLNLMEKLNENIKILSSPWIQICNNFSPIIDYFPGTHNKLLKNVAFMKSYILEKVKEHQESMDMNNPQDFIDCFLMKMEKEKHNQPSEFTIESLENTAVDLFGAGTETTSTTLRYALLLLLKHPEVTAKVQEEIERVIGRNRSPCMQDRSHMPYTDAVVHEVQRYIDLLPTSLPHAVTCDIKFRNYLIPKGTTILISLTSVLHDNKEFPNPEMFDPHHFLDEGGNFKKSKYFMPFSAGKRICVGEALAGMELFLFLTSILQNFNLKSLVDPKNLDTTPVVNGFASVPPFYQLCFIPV
- MEASUREMENT NOTES: CYP inhibition (fluorimetric detection) assay
- Assay type: in vitro ADME
- CONDITION: recombinant human CYP2C9, read-out: (%) inhibition of CYP 2C9
Reported inhibition at 10 µM is given for each of the following compounds.
Return type: number; implicit unit %.

Exercise: Supply reported inhibition at 10 µM belonging to this compound: CC(C)C(C)Nc1cc(-c2[nH]c(CCCO)nc2-c2ccc(F)cc2)ccn1 (stereo not drawn) [compound 2]
Key: 61.9

Exercise: Supply reported inhibition at 10 µM belonging to this compound: CC(C)C(C)Nc1cc(-c2nc(SCCO)[nH]c2-c2ccc(F)cc2)ccn1 (stereo not drawn) [LN950, reference compound]
Key: 91.5

Further cases:
Exercise: Supply reported inhibition at 10 µM belonging to this compound: CCc1nc(-c2ccc(F)cc2)c(-c2ccnc(NC(C)c3ccccc3)c2)[nH]1 (stereo not drawn) [compound 1]
Key: 85.1

---

- STUDY SYSTEM: CYP3A4 (Homo sapiens, UniProt P08684)
- Construct: purchased Eurofins Panlabs Inc. (contract assay)
- Sequence (P08684 whole entry): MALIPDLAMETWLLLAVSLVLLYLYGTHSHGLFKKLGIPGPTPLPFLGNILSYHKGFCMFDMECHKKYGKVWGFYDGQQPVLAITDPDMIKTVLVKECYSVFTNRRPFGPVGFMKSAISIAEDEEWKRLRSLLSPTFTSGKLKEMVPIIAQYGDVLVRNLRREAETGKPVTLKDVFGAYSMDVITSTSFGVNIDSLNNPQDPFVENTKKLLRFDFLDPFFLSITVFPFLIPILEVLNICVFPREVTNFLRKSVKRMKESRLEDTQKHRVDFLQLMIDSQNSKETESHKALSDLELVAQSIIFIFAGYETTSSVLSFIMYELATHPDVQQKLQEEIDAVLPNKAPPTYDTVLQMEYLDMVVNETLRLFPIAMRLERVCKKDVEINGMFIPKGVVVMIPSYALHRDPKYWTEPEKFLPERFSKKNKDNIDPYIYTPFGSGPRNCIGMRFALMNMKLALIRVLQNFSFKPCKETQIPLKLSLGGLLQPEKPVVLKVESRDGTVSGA
- MEASUREMENT NOTES: CYP inhibition (fluorimetric detection) assay
- Type: in vitro ADME
- CONDITION: recombinant human CYP3A4, read-out: (%) inhibition of CYP 3A4
REPORTED ENDPOINT: inhibition at 10 µM (%)
Return type: number; implicit unit %.

Example entries begin here.
Exercise: Supply reported inhibition at 10 µM belonging to this molecule: CC(C)C(C)Nc1cc(-c2nc(SCCO)[nH]c2-c2ccc(F)cc2)ccn1 (stereo not drawn) [LN950, reference compound]
Key: 61

Exercise: Supply reported inhibition at 10 µM belonging to this molecule: CC(C)C(C)Nc1cc(-c2[nH]c(CCCO)nc2-c2ccc(F)cc2)ccn1 (stereo not drawn) [compound 2]
Key: 92.1

Turning now to a further molecule:
Exercise: Supply reported inhibition at 10 µM belonging to this molecule: CCc1nc(-c2ccc(F)cc2)c(-c2ccnc(NC(C)c3ccccc3)c2)[nH]1 (stereo not drawn) [compound 1]
Key: 97.6
